Tested on: SK-MEL-28 melanoma
assay_explanation: NCI tumour cell line growth inhibition, 48 h
Please provide measured TGI for the entries that follow.
Your answer is read as µM, so omit the unit and give the number.

Ask: Please look at this molecule and report its TGI: O=C1C=C(Sc2ccccc2)c2nccc3c2c1nc1ccccc13
Reply: 38.8

Ask: Please look at this molecule and report its TGI: C/C(=N/Nc1nc2ccccc2n1C)c1ccccn1
Reply: 29.1

###

Please provide measured TGI for the entries that follow.
Tested on: COLO 205 colon
assay_explanation: NCI tumour cell line growth inhibition, 48 h
Your answer is read as µM, so omit the unit and give the number.

Ask: Please look at this molecule and report its TGI: O=c1c2ccccc2n(C[C@H]2CO2)c2ccccc12
Reply: 4.15

Ask: Please look at this molecule and report its TGI: O=C(CNc1cccc([N+](=O)[O-])c1)Nn1c(-c2ccccc2)nc2ccccc2c1=O
Reply: 3.17

Ask: Please look at this molecule and report its TGI: COc1ccc(C(=O)Cn2c(C(=O)/C=C/c3ccco3)nc3ccccc32)cc1
Reply: 71.8

###

System: OVCAR-3 ovarian
assay_explanation: NCI tumour cell line growth inhibition, 48 h
measurement_name: log10 of TGI (log10 of the value in µM)
# values: log10(TGI), units µM

Ask: Please look at this compound and report its log10 of TGI: CCCCCCCCCc1cc(-c2ccc(C=O)s2)sc1-c1ccc(C=O)s1
Reply: 1.58

Ask: Please look at this compound and report its log10 of TGI: Fc1ccc2c(c1)c(-c1nc(-c3c[nH]c4ncccc34)cs1)cn2CCCN1CCCCC1
Reply: 0.49

Ask: Please look at this compound and report its log10 of TGI: O=C1CC(O)c2c(Br)sc(Br)c21 (centres undefined)
Reply: 1.30

Ask: Please look at this compound and report its log10 of TGI: CN(CCCCN1CCCC1)CCCN(C)C(=O)Cc1ccc(Cl)c(Cl)c1
Reply: 1.80

Ask: Please look at this compound and report its log10 of TGI: CCOC(=O)N1CCc2cc(OC)c(OC)c3c2c1cc1cc(OC)c(OC)cc13
Reply: 0.94

Ask: Please look at this compound and report its log10 of TGI: CCCCCC/C=C1\CCC(CN2CCCC2)C1=O (centres undefined)
Reply: 1.44

Ask: Please look at this compound and report its log10 of TGI: COc1cc2cc(Oc3ccc(NC(=O)Nc4cccc(C(F)(F)F)c4)cc3)c(C)nc2cc1OC
Reply: 0.91

Ask: Please look at this compound and report its log10 of TGI: CC1(C)N=C(N)N=C(N)N1c1ccc(OCCCCOc2ccc(S(=O)(=O)F)cc2)c(Cl)c1
Reply: 1.22

Ask: Please look at this compound and report its log10 of TGI: CC(=O)OC[C@]1(O)CC[C@@]23CC1C[C@@H]2CCC1C(C)(C)CCC[C@@]13C (some centres undefined)
Reply: 1.49

Ask: Please look at this compound and report its log10 of TGI: C=C1C(=O)O[C@H]2[C@H]1CC/C(Cn1cc(-c3cc(C(F)(F)F)cc(C(F)(F)F)c3)nn1)=C\CC[C@@]1(C)O[C@@H]21
Reply: -0.45

Ask: Please look at this compound and report its log10 of TGI: COc1ccc(/C=C/C(=O)c2ccc(SC)cc2)cc1OC
Reply: 0.81

Ask: Please look at this compound and report its log10 of TGI: Nc1c(Br)cc(Br)c2c1[nH]c(=O)c1ccccc12
Reply: 1.64

Ask: Please look at this compound and report its log10 of TGI: O=C(CNc1cccc([N+](=O)[O-])c1)Nn1c(-c2ccccc2)nc2ccccc2c1=O
Reply: 0.71

Ask: Please look at this compound and report its log10 of TGI: COC1CC2CCC(C)C(O)(O2)C(=O)C(=O)N2CCCCC2C(=O)OC(C(C)CC2CCC(O)C(OC)C2)CC(=O)C(C)C=C(C)C(O)C(OC)C(=O)C(C)CC(C)/C=C/C=C/C=C1C (centres undefined)
Reply: 1.04

Ask: Please look at this compound and report its log10 of TGI: CCC(CO)Nc1nc(NCc2ccccc2O)c2ncn(C(C)C)c2n1 (centres undefined)
Reply: 1.30

Ask: Please look at this compound and report its log10 of TGI: CC1=C2C[C@H]3[C@@H](CC[C@@H]4CC(NS(C)(=O)=O)CC[C@@]43C)[C@@H]2CC[C@@]2(C1)O[C@@H]1C[C@H](C)CN[C@H]1[C@H]2C (some centres undefined)
Reply: 1.15
